Kindly state Kd for each of the entries shown.
study-system: UniProt:Q9Y6W6
experiment-summary: MKP-5 Malachite Green phosphate assay with dual phosphorylated peptide pTpY
Format: biochemical
Source text: In a non-limiting example, the assay comprises contacting a peptide comprising the sequence pThr-Gly-pTyr, the polypeptide comprising and/or consisting of the catalytic domain of MKP-5 (such as but not limited to residues 305-482 of SEQ ID NO:4), or an active fragment thereof, and the test compound. […] Dephosphorylation of that peptide can be evaluated qualitatively and/or quantitatively using any methods known in the art, such as but not limited to a Malachite Green Phosphate Assay. […]

Query :: Return reported Kd. Input compound: Cc1ccc(C)n1-c1ccc(C(=O)O)c(O)c1 [YU129641]
Result :: > 100 µM

Query :: Return reported Kd. Input compound: O=c1cc2oc3cc(O)c(O)cc3c(-c3ccc([N+](=O)[O-])o3)c-2cc1O [YU109017]
Result :: > 100 µM

Query :: Return reported Kd. Input compound: O=C(O)c1ccc(C2Nc3c(-c4ccccc4)cccc3C3C=CCC32)cc1 (stereo not shown) [YU119284]
Result :: > 100 µM

Query :: Return reported Kd. Input compound: CSc1scc2c1-c1nc(SCC(=O)C(C)(C)C)ncc1CC2 [YU032149]
Result :: 6.25 µM

---

Kindly state Kd for each of the entries shown.
study-system: MKP5 (Homo sapiens)
Sequence (Q9Y6W6 whole entry): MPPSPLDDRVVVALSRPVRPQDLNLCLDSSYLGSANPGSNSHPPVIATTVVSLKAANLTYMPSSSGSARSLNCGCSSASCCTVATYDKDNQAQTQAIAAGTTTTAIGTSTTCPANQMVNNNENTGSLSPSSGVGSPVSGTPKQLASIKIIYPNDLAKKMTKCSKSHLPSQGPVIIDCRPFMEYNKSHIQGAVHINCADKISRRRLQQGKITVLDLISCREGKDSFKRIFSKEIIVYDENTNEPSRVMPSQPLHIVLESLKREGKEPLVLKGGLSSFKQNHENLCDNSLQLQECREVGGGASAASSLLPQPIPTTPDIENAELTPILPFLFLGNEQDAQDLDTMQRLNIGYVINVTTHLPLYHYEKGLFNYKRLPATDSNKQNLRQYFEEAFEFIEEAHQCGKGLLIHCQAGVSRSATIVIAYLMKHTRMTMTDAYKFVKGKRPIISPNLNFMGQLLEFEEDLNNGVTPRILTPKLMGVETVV
experiment-summary: MKP5 EZReader assay with fluorescent mono-phosphorylated peptides
Assay type: biochemical
settings: Kd (M) MKP5 EZREader fluor pT_Y, substrate fluor pT_Y (SEQ ID NO: 2)
Dear colleague, please return just the value in M, with no unit written.

Query :: Return reported Kd. Input compound: `Cc1ccc(C)n1-c1ccc(C(=O)O)c(O)c1`
Result :: 1.41e-05

Query :: Return reported Kd. Input compound: `CSc1scc2c1-c1nc(SCC(=O)C(C)(C)C)ncc1CC2`
Result :: 1.13e-05

Query :: Return reported Kd. Input compound: `O=c1cc2oc3cc(O)c(O)cc3c(-c3ccc([N+](=O)[O-])o3)c-2cc1O`
Result :: 1.56e-05

---

study-system: MKP5 (Homo sapiens)
experiment-summary: MKP5 EZReader assay with fluorescent mono-phosphorylated peptides
Type: biochemical
settings: Kd (M) MKP5 EZReader fluor_TpY, substrate fluor_TpY (SEQ ID NO: 1)
quantity: Kd

Query :: Return reported Kd. Input compound: O=C(O)c1ccc(C2Nc3c(-c4ccccc4)cccc3C3C=CCC32)cc1 (stereo not shown) [YU119284]
Result :: > 0.0002 M

Query :: Return reported Kd. Input compound: Cc1ccc(C)n1-c1ccc(C(=O)O)c(O)c1 [YU129641]
Result :: 1.04e-05 M

Query :: Return reported Kd. Input compound: O=c1cc2oc3cc(O)c(O)cc3c(-c3ccc([N+](=O)[O-])o3)c-2cc1O [YU109017]
Result :: 1.03e-05 M

Query :: Return reported Kd. Input compound: CSc1scc2c1-c1nc(SCC(=O)C(C)(C)C)ncc1CC2 [YU032149]
Result :: 1.75e-05 M

---

study-system: MKP5 (Homo sapiens)
experiment-summary: MKP5 pNPP assay
Format: biochemical
quantity: Kd

Query :: Return reported Kd. Input molecule: `O=c1cc2oc3cc(O)c(O)cc3c(-c3ccc([N+](=O)[O-])o3)c-2cc1O`
Result :: > 100 µM

Query :: Return reported Kd. Input molecule: `Cc1ccc(C)n1-c1ccc(C(=O)O)c(O)c1`
Result :: > 200 µM

Query :: Return reported Kd. Input molecule: O=C(O)c1ccc(C2Nc3c(-c4ccccc4)cccc3C3C=CCC32)cc1 (stereo not shown)
Result :: > 200 µM

Query :: Return reported Kd. Input molecule: `CSc1scc2c1-c1nc(SCC(=O)C(C)(C)C)ncc1CC2`
Result :: 4.23 µM
